# System: HL-60
# Experiment Description: NCI tumour cell line growth inhibition, 48 h
The source made the active and inactive calls. Cut-off read from the data, not from the text of the source: active = GI50 up to about 1.1 µM and inactive = higher.
Labels: active, inactive

Compound: COCOc1ccc(Cn2c(=O)n(C)c(=O)c3c2ncn3C)cc1[N+](=O)[O-]
Class Name: inactive

Compound: CCN1CCCn2c(=O)[nH]c3cc(Br)cc1c32
Class Name: inactive

Compound: CN1N=C(Nc2ccccc2)Sc2c1cnn(-c1ccccc1)c2=O
Class Name: inactive

Compound: C=CCn1cc(C(=O)NC(=O)NCCCCCOC(=O)CCCCCCCCCCC(=O)OCCCCCNC(=O)NC(=O)c2cn(CC=C)c(=O)n(C)c2=O)c(=O)n(C)c1=O
Class Name: inactive

Compound: O=C1CCN(CCC(F)(F)C(F)(F)C(F)(F)C(F)(F)C(F)(F)C(F)(F)F)C(=S)N1CCC(F)(F)C(F)(F)C(F)(F)C(F)(F)C(F)(F)C(F)(F)F
Class Name: inactive

Compound: CS(=O)(=O)OCCn1c(=O)n(CCOS(C)(=O)=O)c(=O)n(CCOS(C)(=O)=O)c1=O
Class Name: inactive

Compound: O=c1[nH]c2ccccc2n1CCCN1CCC(n2c(=O)[nH]c3cc(Cl)ccc32)CC1
Class Name: inactive

Compound: COc1ccc2c(c1OC)C(C(Cl)(Cl)Cl)N1CCc3cc4c(cc3C1=C2)OCO4 (stereo not given)
Class Name: inactive

Compound: CC(C)c1ccc(O)c(=O)c(O)c1.CC(C)c1ccc(O)c(=O)cc1.CC(C)c1cccc(=O)c(O)c1.CC(C)c1ccccc(=O)c1O
Class Name: active

Compound: CCCCCC/C=C\CCCCCCCCCc1cccc(O)c1C(=O)O
Class Name: inactive

Compound: COC(=O)/C=C(\C)CC/C=C(\C)CCC(O)C(C)(C)O (stereo not given)
Class Name: inactive

Compound: Nc1nc(Cl)cc(NCC2(CO)CC(CCc3ccccc3)C2)n1 (stereo not given)
Class Name: inactive

Compound: Cc1ccc(C(=O)Nc2ccc(S(=O)(=O)O)c3cc(S(=O)(=O)O)cc(S(=O)(=O)O)c23)cc1NC(=O)c1cccc(NC(=O)Nc2cccc(C(=O)Nc3cc(C(=O)Nc4ccc(S(=O)(=O)O)c5cc(S(=O)(=O)O)cc(S(=O)(=O)O)c45)ccc3C)c2)c1
Class Name: inactive

Compound: O=C1Nc2ccccc2/C1=C\c1c(Cl)nc2n1CCS2
Class Name: inactive

Compound: COc1ccc(/C=N/N=C(\N)NO)cc1OC
Class Name: inactive

----------
# System: LOX IMVI
# Experiment Description: NCI tumour cell line growth inhibition, 48 h
Calls of active or inactive are those of the source. Cut-off read from the data, not from the text of the source: active = GI50 up to about 1.1 µM and inactive = higher.

Compound: COc1ccnc2c1C(=O)c1nc3ccccc3c3ccnc-2c13
System: LOX IMVI
GI50: 0.155 µM (active)

Compound: COC1=CC2C(c3cc4ccccc4n3S(=O)(=O)c3ccccc3)CC1CN2C(=O)OCc1ccccc1 (stereo unspecified)
System: LOX IMVI
GI50: 24.8 µM (inactive)

Compound: O=C1C(NCCc2ccc(O)c(O)c2)=CC(=O)c2ncccc21
System: LOX IMVI
GI50: 4.45 µM (inactive)

Compound: O=C(O)CC(CC(=O)O)n1cccc1
System: LOX IMVI
GI50: > 100 µM (inactive)

Compound: CC1OC(NCCNCCNC2OC(C)C(O)C(O)C2O)C(O)C(O)C1O (stereo unspecified)
System: LOX IMVI
GI50: > 100 µM (inactive)

Compound: CCc1cc2c(Nc3ccccc3)c3c(nc2s1)CCCC3
System: LOX IMVI
GI50: 11.4 µM (inactive)

Compound: Cc1ccc(S(=O)(=O)C2=Cc3ccc(C(F)(F)F)cc3C2(O)c2cccc(C(F)(F)F)c2)cc1 (stereo unspecified)
System: LOX IMVI
GI50: 1.91 µM (inactive)

Compound: COc1cc2c(c(OC)c1OC)-c1ccc(SC)c(=O)cc1C(CC(=O)Oc1cccc(F)c1)C2 (stereo unspecified)
System: LOX IMVI
GI50: 0.197 µM (active)

Compound: Nc1nc(Cl)cc(NCC2(CO)CC(CCc3ccccc3)C2)n1 (stereo unspecified)
System: LOX IMVI
GI50: 3.26 µM (inactive)

Compound: O=C1c2cccnc2S(=O)(=O)N1c1ccc([N+](=O)[O-])cc1
System: LOX IMVI
GI50: > 100 µM (inactive)

Compound: COc1cc(C2[C@H]3C(=O)N(c4ccc(Cc5ccc(N6C(=O)[C@@H]7ON(c8ccccc8)C(c8cc(OC)c(OC)c(OC)c8)[C@@H]7C6=O)cc5)cc4)C(=O)[C@H]3ON2c2ccccc2)cc(OC)c1OC (stereo partly specified)
System: LOX IMVI
GI50: > 100 µM (inactive)

Compound: Cc1ccc2c(c1)C(C(=O)N[C@@H]1C(=O)N3[C@@H]1SC(C)(C)[C@@H]3C(=O)O)OCCC2 (stereo partly specified)
System: LOX IMVI
GI50: > 100 µM (inactive)

Compound: C/C=C(/C)C(=O)O[C@H](C[C@@H](C)[C@H]1CC(c2ccoc2)OC1=O)[C@@]1(C)C(=O)CCC2O[C@]21C (stereo partly specified)
System: LOX IMVI
GI50: > 100 µM (inactive)

Compound: Cc1nn2c(=O)c([N+](=O)[O-])c(/C=C/c3ccco3)nc2s1
System: LOX IMVI
GI50: 17.6 µM (inactive)

Compound: NN=C1/C(=C\c2ccccc2)CCC/C1=C/c1ccccc1
System: LOX IMVI
GI50: 26.2 µM (inactive)

Compound: CC1(C)Cc2c(cnn2-c2ccc(C(F)(F)F)cc2)-c2[nH]c(-c3ccc(O)cc3)nc21
System: LOX IMVI
GI50: 17.8 µM (inactive)

Compound: COC(=O)C1=C(c2ccc(OC)c(OC)c2)OC(c2ccc(OC)c(OC)c2)C1 (stereo unspecified)
System: LOX IMVI
GI50: 19.5 µM (inactive)

Compound: O=c1[nH]c2cc3[nH]c4ncccc4c(=O)c3cc2[nH]1
System: LOX IMVI
GI50: > 10 µM (inactive)

Compound: Cn1c(=O)c2ccccc2[n+]2c(-c3cccc([N+](=O)[O-])c3)csc12
System: LOX IMVI
GI50: > 100 µM (inactive)

Compound: CCN(CC)S(=O)(=O)c1ccc2[nH]c(NC(=O)OC)nc2c1
System: LOX IMVI
GI50: 42.6 µM (inactive)

Compound: Cc1cn(CCCCCOC(=O)NC(CCCNC(N)=O)C(=O)O)c(=O)[nH]c1=O (stereo unspecified)
System: LOX IMVI
GI50: > 100 µM (inactive)

Compound: COc1nc(N)c(C#N)c(C#N)c1C#N
System: LOX IMVI
GI50: > 10 µM (inactive)

Compound: CC1(O)CCn2c(=O)c3cc4ccccc4cc3c(=O)n2C1O (stereo unspecified)
System: LOX IMVI
GI50: > 100 µM (inactive)

Compound: CCc1nc2ccccc2c(=O)n1/N=C(\N=N\c1ccc(Cl)cc1)c1ccccc1
System: LOX IMVI
GI50: 16.9 µM (inactive)

Compound: O=C(O)CS(=O)(=O)C(c1ccccc1)c1ccccc1
System: LOX IMVI
GI50: > 100 µM (inactive)

Compound: CNC1=CC(=O)C2=C(C1=O)[C@H]1CC[C@]3(C)C(=O)CC[C@H]3[C@@H]1CC2
System: LOX IMVI
GI50: 4.54 µM (inactive)
